Data credit: patent US11993604B2

- Target Of Assay: CDK6/cyclin D1 (Homo sapiens)
- Sequence (Q00534 whole entry, species assumed): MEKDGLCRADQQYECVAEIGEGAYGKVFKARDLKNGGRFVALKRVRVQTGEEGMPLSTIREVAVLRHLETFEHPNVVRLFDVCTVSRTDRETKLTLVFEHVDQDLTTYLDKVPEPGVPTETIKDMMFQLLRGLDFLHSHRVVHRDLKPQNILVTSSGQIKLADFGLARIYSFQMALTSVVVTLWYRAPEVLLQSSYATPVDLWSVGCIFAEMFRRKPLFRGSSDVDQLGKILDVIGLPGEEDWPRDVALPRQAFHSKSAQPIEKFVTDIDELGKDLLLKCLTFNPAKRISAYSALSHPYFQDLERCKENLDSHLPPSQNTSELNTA
- Sequence (P24385 whole entry partner, species assumed): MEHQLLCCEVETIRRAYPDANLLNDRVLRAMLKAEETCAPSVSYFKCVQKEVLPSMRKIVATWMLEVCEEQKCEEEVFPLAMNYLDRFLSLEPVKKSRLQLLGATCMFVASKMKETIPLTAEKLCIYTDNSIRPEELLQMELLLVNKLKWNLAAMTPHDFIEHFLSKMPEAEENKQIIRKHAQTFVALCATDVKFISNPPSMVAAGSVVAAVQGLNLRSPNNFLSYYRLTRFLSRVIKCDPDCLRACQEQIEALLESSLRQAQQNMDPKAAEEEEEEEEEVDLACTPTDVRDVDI
- Experiment Summary: Biochemical kinase inhibition test, CDK6/cyclin D1 (similar method)
- Measurement Setup: three-fold serial dilution from 10 μM; 10 μM ATP; read-out: CDK6/D1 (nM), enzyme inhibitory activity IC50

- Line Notation: "CCN1CCN(c2ccc(Nc3ncc4ccc5cnn(C6CCCC6)c5c4n3)nc2C)CC1"
  IC50: "1 to 5 nM"
- Line Notation: "CC(C)n1ncc2ccc3cnc(N4CCC[C@@H]4c4cccc(F)c4)nc3c21"
  IC50: "50 to 100 nM"
- Line Notation: "c1cc(Nc2ncc3ccc4cnn(C5CCCC5)c4c3n2)ncc1N1CCOCC1"
  IC50: "1 to 5 nM"
- Line Notation: "Cc1cc(Nc2ncc3ccc4cnn(C5CC5)c4c3n2)ncc1N1CCN(C)CC1"
  IC50: "10 to 20 nM"
